Here, each record is paired with measured GI50 data.
Test system: SR
Experiment: Growth inhibition of human SR cells
Assay type: functional
Entry rule: numbers only, all in µM.

>>> result_number("Cc1cc(S(=O)(=O)Nc2nc3ccsc3c(=O)n2Cc2ccco2)c(S)cc1Cl")
9.9

Field: next compound
Give GI50 for the following compound: `Cc1cc(S(=O)(=O)Nc2nc3ccccc3c(=O)n2Cc2ccco2)c(S)cc1Cl`
19.5

---

Recorded measurements of GI50, one per entry
Test system: NCI-H522
Experiment: Growth inhibition of human NCI-H522 cells
Format: functional

Some molecules with known GI50 results, for comparison:
>>> result("Cc1cc(S(=O)(=O)Nc2nc3cc(-c4ccc(Cl)cc4)sc3c(=O)n2Cc2ccccc2)c(S)cc1Cl")
"> 100 µM"
>>> result("Cc1cc(S(=O)(=O)Nc2nc3cc(-c4ccccc4)sc3c(=O)n2Cc2ccccc2)c(S)cc1Cl")
"> 100 µM"
>>> result("Cc1cc(S(=O)(=O)Nc2nc3cc(-c4ccsc4)sc3c(=O)n2Cc2ccco2)c(S)cc1Cl")
"> 100 µM"

Okay, next one:
Name the value of GI50 reported for `Cc1cc(S(=O)(=O)Nc2nc3ccccc3c(=O)n2N)c(S)cc1Cl` when tested on NCI-H522.
19 µM
